Values compiled from PubChem BioAssay (NCI).

- System: LOX IMVI melanoma
- measurement.description: NCI-60 one-dose screen, 48 h (100 = growth as untreated, 0 = no growth, -100 = all killed)
- assay.conditions: 10 µM unless noted
About 83,000 compounds went through this panel and 20% of them were active in at least one assay; those are over-represented in the sample as a whole.
Listed below: growth values for each entry.
The answer is to be given in %; state only the numeric part.

Quick note, growth for COc1ccc(/C=C/C(=O)c2nnn(-c3ccc(Br)cc3)c2C)cc1OC landed at 43.5

growth measured on CCC(=O)Nc1cc(Nc2cc(NC3CC3)n3ncc(C#N)c3n2)ccc1C = 21.1

Lookup result for COc1ccc(N2CCN(C(=O)CSc3ccc(-c4nc5cc(C)c(C)cc5[nH]4)cn3)CC2)cc1 ; measured growth: 56.8

The value of growth measured for the compound CCc1ccc(NC(=O)N[C@@H](Cc2cc(F)cc(F)c2)C(=O)N[C@@H]2C(=O)N3CCC[C@H]3C(=O)N3CCO[C@H](C)[C@H]3C(=O)N[C@@H](CO)C(=O)N3C[C@H](C)C[C@H]3C(=O)O[C@H]2C)c(F)c1 turned out to be 20.4
